Listing: melting point of selected compounds

Worked examples, 5 compounds total:
1. CCN(CC)C(=O)c1cc2ccc(Cl)cc2c(-c2ccccc2Cl)n1
145 °C
2. COc1ccc(C2=NN(c3ccc([N+](=O)[O-])cc3)C(=O)[C@H]3CC=CC[C@@H]23)cc1OC (relative stereo)
179 to 182 °C
3. O=C(OCc1ccccc1)c1ccc(N2CCOCC2)cc1
85 to 86 °C
4. COc1cc2ncc(C#N)c(Nc3cccc(Oc4ccccc4)c3)c2cc1OC
253 to 254 °C
5. CN1c2ccccc2N(C(=O)c2ccc(-c3ccccc3)cc2)Cc2cccnc21
220 to 223 °C

Which value of melting point has been reported for CCOC(=O)c1ccccc1C(=O)c1ccc2c(c1)C(C)(C)CCC2(C)C in the records?
58 to 59 °C

Param item = Nc1cc(-c2noc(-c3cnn4ccc(-c5ccc(C(F)(F)F)cc5)nc34)n2)ccn1 ; retrieve measured melting point.
250 °C

// lookup melting point for N=C(NC(c1ccccc1)c1ccccc1)N1CCOCC1
122 to 124 °C

Quick one: melting point for CCOC(=O)CCNCC(O)COc1ccc(OC)cc1C#N (stereo unspecified) ?
76 °C

Which melting point is reported for this compound? O=C(c1ccccc1)c1ccc(OCCCOc2ccc(C(=O)c3ccccc3)cc2)cc1
146 to 148 °C

---

Quantity measured: melting point

Use these answered entries as a reference point.
1. COc1ccc(-c2nc(Sc3ccc(C)cc3)[nH]c2-c2ccc(OC)cc2)cc1
181 °C
2. O=C(NCCSCc1cccc(I)c1)c1c(Cl)cccc1Cl
75 to 78 °C
3. NC(=O)N(O)CCNC(=O)c1cccc(Oc2ccc(Cl)cc2)c1
146 to 147 °C

Fill in: melting point of O=C(c1cc(O)c(O)c([N+](=O)[O-])c1)c1nc2ccccc2[nH]1 is ___
240 to 250 °C

Could you share which melting point value was measured for Cc1nc(NC(=O)NS(=O)(=O)C(Cl)C(C)Cl)nc(C)c1Cl (stereo not given) ?
161 to 162 °C

Fill blank: measured melting point of the molecule COc1ccc(C=Cc2cc(Cl)c(OC)c(OC)c2)cc1O is ____.
105 to 106 °C

Any idea what melting point was measured for CCOC(=O)c1cc(NC(C)=O)ccc1OC(C)=O ?
91.5 to 92.5 °C

Data request, read-out melting point, for COc1cccc2c1C(OC)(OC)C=CC2=O
62 to 63 °C

What melting point value was documented for this molecule, O=C(NCCn1cncn1)c1sc2ccccc2c1Cl ?
151 to 152 °C

Could you share which melting point value was measured for CC(C)C(=O)Nc1cccc(N(CCO)CCO)c1 ?
120 to 122 °C

Consider the molecule Cn1c(=O)c(-c2ccc(Cl)cc2Cl)cc2c3cc(-c4cocn4)ccc3n(C)c21 and give its measured melting point.
221 to 222 °C

Quick one: melting point of O=C1CCc2c(Cl)sc(-c3ccccc3F)c21 ?
133 to 135 °C

---

// reported melting point for each item listed

Please review the following examples before continuing.
1) CN1c2ccccc2C(C#N)c2ccccc21
141 to 143 °C
2) O=C(CCc1cc(-c2ccccc2)nc2ccccc12)N1CCCCC1
110 °C
3) Cc1cc(F)ccc1-c1nc(NCCNC(=O)NC2CCCCC2)nc2c1ccc(=O)n2-c1c(F)cccc1F
131 to 144 °C
4) C[C@H]1COc2c(C#N)cccc2C(=O)N(C[C@@H](CCN)c2ccc(Cl)c(Cl)c2)C1
82 to 128 °C
5) COCN1C(C)=C(C(=O)OCOC(=O)C(C)(C)C)C(c2cccc([N+](=O)[O-])c2)C(C(=O)OCOC(=O)C(C)(C)C)=C1C
73 to 74 °C

# query: melting point of entry CCN1c2ncc(CCc3cccnc3)cc2C(=O)N(C)c2cccnc21
79 to 80 °C

Please look up its melting point: COc1cc(C)cc(OC)c1C1=NC(NC(=O)Nc2ccccc2Cl)C(=O)N(C)c2ccccc21 (centres undefined)
260 °C

# credit: a melting point compilation (Tetko et al.; mined from patent text by program, amines drawn as free bases though some values may be those of a salt)
